experiment: protein stability index of a GFP-peptide fusion (yeast GPS) (PSI 1-4); higher = more stable; sorted into four equal gates, so the index is relative within each strain; conditions: pdr5∆
Classify by measured protein stability index: fulfilled if it is equal to or exceeds 3, not fulfilled if it is smaller.

INSERT INTO assay_data (constructsequence, classlabel) VALUES
  ('MNVSTSTFQTRRRRLKK [RPB4]', 'fulfilled'),
  ('IGDTIADGPTMREITET [RPO21]', 'fulfilled'),
  ('DDDEIVMPVPNVRSSVL [SKP1]', 'not fulfilled'),
  ('EITQQEKGLNELSIRDV [SMC4]', 'not fulfilled'),
  ('DAHGVTQARVITGNKIM [RPS13]', 'not fulfilled'),
  ('DVKKPFSFGTSQPNNTP [YLR335W/NUP2]', 'not fulfilled'),
  ('KNRSNRKRFHSQSKGTV [YOR098C/NUP1]', 'fulfilled'),
  ('KCFDDIEPHIFDQLIEW [YCG1]', 'fulfilled'),
  ('SNQAVGQTWNFPEVFQV [SRB8]', 'fulfilled'),
  ('ETKVDELRYQSHILNSH [DSN1]', 'not fulfilled'),
  ('SNGPRAAKKRRPAAKGK [RRP6]', 'fulfilled'),
  ('SNGVLNVDNQTSDLVKS [RPS17A]', 'not fulfilled'),
  ('IDEAHRIKNEQSALSQI [ISW2]', 'not fulfilled'),
  ('FFMSERSSRLHIVYSLL [YML103C/NUP188]', 'not fulfilled'),
  ('DELDQEILNLSTQELQT [RPT5]', 'fulfilled'),
  ('LCQINKCSTRGLSTDHT [YML103C/NUP188]', 'not fulfilled'),
  ('ELFKGYLADDIDADSLE [RPL5]', 'fulfilled'),
  ('ARDLLDDLEKTLDKKDS [RPN9]', 'not fulfilled'),
  ('PIPDARNAALRAKAEAA [SCL1]', 'not fulfilled'),
  ('PLPSHALTVQEVLNRVA [YDL116W/NUP84]', 'not fulfilled'),
  ('LKVYKVGDIVDIKANGS [RPL21A]', 'not fulfilled'),
  ('KRKSAQEPELSLDQGDA [SMC4]', 'fulfilled'),
  ('YLACKVEECPQYIRTLV [SSN8]', 'not fulfilled'),
  ('IQQLHSVLNPFLLRRVK [ISW2]', 'not fulfilled'),
  ('EPEFHALSQSSLLKTKL [RRI1]', 'not fulfilled'),
  ('ETGNFSWASEGISKKTR [RPS8A]', 'fulfilled'),
  ('TLKKEWLKEYEDETLRR [YIL149C/MLP2]', 'fulfilled');
